Where do the numbers come from? From patent US8957077B2.

# target: human PDE10A2 (Homo sapiens (Human), UniProt Q9Y233)
# Sequence (Q9Y233 267-1055): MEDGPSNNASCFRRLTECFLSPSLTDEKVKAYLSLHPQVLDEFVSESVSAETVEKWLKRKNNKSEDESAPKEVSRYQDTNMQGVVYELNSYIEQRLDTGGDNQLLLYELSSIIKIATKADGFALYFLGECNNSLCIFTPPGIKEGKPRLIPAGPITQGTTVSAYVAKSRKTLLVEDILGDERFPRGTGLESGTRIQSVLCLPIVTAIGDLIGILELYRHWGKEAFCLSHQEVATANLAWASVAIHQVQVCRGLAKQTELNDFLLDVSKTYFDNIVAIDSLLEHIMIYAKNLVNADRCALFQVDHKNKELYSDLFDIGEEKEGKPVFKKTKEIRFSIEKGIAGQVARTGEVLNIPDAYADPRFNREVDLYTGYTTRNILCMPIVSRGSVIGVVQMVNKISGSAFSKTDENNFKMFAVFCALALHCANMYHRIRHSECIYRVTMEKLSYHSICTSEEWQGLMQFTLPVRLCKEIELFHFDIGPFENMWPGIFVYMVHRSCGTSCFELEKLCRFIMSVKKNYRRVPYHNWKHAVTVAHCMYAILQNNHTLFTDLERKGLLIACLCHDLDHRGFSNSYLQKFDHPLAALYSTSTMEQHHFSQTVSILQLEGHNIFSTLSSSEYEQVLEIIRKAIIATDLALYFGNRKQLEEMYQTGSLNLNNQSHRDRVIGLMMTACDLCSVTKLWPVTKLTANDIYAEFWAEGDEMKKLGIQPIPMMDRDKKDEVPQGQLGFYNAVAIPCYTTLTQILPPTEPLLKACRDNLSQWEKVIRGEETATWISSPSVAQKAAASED
pKi: −log10 of the molar value.
The threshold is inclusive: pKi of exactly 9 counts as condition met; values below receive condition not met.

Task: Reported pKi at or above 9? Cc1nc(C)c(CNc2cc(C(C)C[C@@H]3C[C@H]3c3ccccn3)nc3ccnn23)s1 (stereo in doubt) [Compound 1-13]
Result: condition not met

Task: Dear colleague, could you confirm whether Cc1ncc(CNc2cc(OC[C@H]3C[C@@H]3c3ccccn3)nc3ccnn23)s1 [Compound 1-4] has pKi at or above 9?
Result: condition met

Task: Determine whether this compound has pKi no lower than 9: Cc1c(OC[C@H]2C[C@@H]2c2ccccn2)nc2ccnn2c1NCc1cnn(C)c1 [Compound 1-20]
Result: condition not met

Task: Answer whether pKi of Cc1nnc(CNc2c(F)c(OC[C@H]3C[C@@H]3c3ccccn3)nc3ccnn23)s1 [Compound 1-18] is greater than or equal to 9.
Result: condition met

Task: Test whether the compound Cc1nc(C)c(CNc2cc(CCC#Cc3ccc4ccccc4n3)nc3ccnn23)s1 [Compound 1-15] records pKi of 9 or higher.
Result: condition met
